targetOfAssay: T1, cynomolgus CX3CR1 (cynomolgus, UniProt P49238 1-355 (human entry))
T1 construct: transiently expressed on HEK293T cells; also called cyCX3CR1; cyno CX3CR1
T1 chain: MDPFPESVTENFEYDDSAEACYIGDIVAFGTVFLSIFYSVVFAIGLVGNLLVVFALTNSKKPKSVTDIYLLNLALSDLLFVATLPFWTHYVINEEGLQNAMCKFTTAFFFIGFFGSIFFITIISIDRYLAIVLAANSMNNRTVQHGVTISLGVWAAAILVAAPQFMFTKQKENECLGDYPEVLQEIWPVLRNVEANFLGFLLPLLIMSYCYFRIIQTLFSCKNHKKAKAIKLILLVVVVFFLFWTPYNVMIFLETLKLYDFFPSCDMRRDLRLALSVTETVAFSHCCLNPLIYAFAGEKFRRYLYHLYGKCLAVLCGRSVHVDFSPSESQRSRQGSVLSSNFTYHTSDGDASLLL
assay: A647-fractalkine competition FACS, cynomolgus against human CX3CR1
Quick reference for ratio (cynomolgus/human IC50) among some binders
// response body must contain only the number

binder | ratio (cynomolgus/human IC50)
CX3CR1BII019 (VHH, expressed in E. coli as described for the monovalent VHHs) EMQLVESGGGSVQAGESLRLSCAASGSIFSSNAMAWYRQAPGKQRDLVALINSVGITKYADSVKGRFTISRDNAKNTVYLQMNSLKPEDTAVYYCTSDGRRGWDTRYWGQGTQVTVSSGGGGSGGGGSGGGGSGGGGSGGGGSGGGGSGGGGSEMQLVESGGGSVQAGESLRLSCAASGSIFSSNAMAWYRQAPGKQRDLVALINSVGITKYADSVKGRFTISRDNAKNTVYLQMNSLKPEDTAVYYCTSDGRRGWDTRYWGQGTQVTVSS | 2.86

Next up:
Identify measured ratio (cynomolgus/human IC50) corresponding to CX3CR1BII020 (VHH, expressed in E. coli as described for the monovalent VHHs) EVQLVESGGGSVQAGESLRLSCAASGSIFSSNAMAWYRQAPGKQRDLVAGINSVGITKYADSVKGRFTISRDNAKNTAYLQMNSLKPEDTAVYYCTSDPRRGWDTRYWGQGTLVTVSSGGGGSGGGGSGGGGSGGGGSGGGGSGGGGSGGGGSEVQLVESGGGSVQAGESLRLSCAASGSIFSSNAMAWYRQAPGKQRDLVAGINSVGITKYADSVKGRFTISRDNAKNTAYLQMNSLKPEDTAVYYCTSDPRRGWDTRYWGQGTLVTVSS
1.47
